Tested on: Enterococcus faecium
Assay: Antibacterial activity against glycopeptide-resistant Enterococcus faecium Efm-HS-0847 vanM after 24 hrs by broth microdilution method
Format: functional
Settings: Efm-HS-0847, 24 h
MIC: recorded values
Unit µg/mL implied. Number only.

- COMPOUND: "CCCCCCCCCCNCCN[C@@]1(C)C[C@H](O[C@H]2[C@H](Oc3c4cc5cc3Oc3ccc(cc3Cl)[C@@H](O)[C@@H](NC(=O)[C@@H](CC(C)C)NC)C(=O)N[C@@H](CC(N)=O)C(=O)N[C@H]5C(=O)N[C@H]3C(=O)N[C@H](C(=O)N[C@H](C(=O)O)c5cc(O)c(CN[C@H]6C(O)O[C@H](CO)[C@@H](O)[C@@H]6O)c(O)c5-c5cc3ccc5O)[C@H](O)c3ccc(c(Cl)c3)O4)O[C@H](CO)[C@@H](O)[C@@H]2O)O[C@@H](C)[C@H]1O (stereo not given in full)"
  UNIT LABEL: "µg/mL"
  MIC: 32

Exercise: Under Enterococcus faecium: report MIC of CN[C@H](CC(C)C)C(=O)N[C@H]1C(=O)N[C@@H](CC(N)=O)C(=O)N[C@H]2C(=O)N[C@H]3C(=O)N[C@H](C(=O)N[C@H](C(=O)O)c4cc(O)c(CN[C@H]5C(O)O[C@H](CO)[C@H](O)[C@@H]5O)c(O)c4-c4cc3ccc4O)[C@H](O)c3ccc(c(Cl)c3)Oc3cc2cc(c3O[C@@H]2O[C@H](CO)[C@@H](O)[C@H](O)[C@H]2O[C@H]2C[C@](C)(NCc3ccc(-c4ccc(C(F)(F)F)cc4)cc3)[C@H](O)[C@H](C)O2)Oc2ccc(cc2Cl)[C@H]1O (stereo not given in full) .
Solution: 4

Exercise: Consider the compound CN[C@H](CC(C)C)C(=O)N[C@H]1C(=O)N[C@@H](CC(N)=O)C(=O)N[C@H]2C(=O)N[C@H]3C(=O)N[C@H](C(=O)N[C@H](C(=O)O)c4cc(O)c(CNCCCNC(=O)[C@H](O)[C@@H](O)[C@H](O)[C@H](O)CO)c(O)c4-c4cc3ccc4O)[C@H](O)c3ccc(c(Cl)c3)Oc3cc2cc(c3O[C@@H]2O[C@H](CO)[C@@H](O)[C@H](O)[C@H]2O[C@H]2C[C@](C)(NCc3ccc(-c4ccc(Cl)cc4)cc3)[C@H](O)[C@H](C)O2)Oc2ccc(cc2Cl)[C@H]1O tested on Enterococcus faecium; state its MIC.
Solution: 16

Exercise: Write MIC of CN[C@H](CC(C)C)C(=O)N[C@H]1C(=O)N[C@@H](CC(N)=O)C(=O)N[C@H]2C(=O)N[C@H]3C(=O)N[C@H](C(=O)N[C@H](C(=O)O)c4cc(O)c(CNCCO)c(O)c4-c4cc3ccc4O)[C@H](O)c3ccc(c(Cl)c3)Oc3cc2cc(c3O[C@@H]2O[C@H](CO)[C@@H](O)[C@H](O)[C@H]2O[C@H]2C[C@](C)(NCc3ccc(-c4ccc(Cl)cc4)cc3)[C@H](O)[C@H](C)O2)Oc2ccc(cc2Cl)[C@H]1O ; system used: Enterococcus faecium
Solution: 4

Exercise: Write down measured MIC (Enterococcus faecium) for this compound. CN[C@H](CC(C)C)C(=O)N[C@H]1C(=O)N[C@@H](CC(N)=O)C(=O)N[C@H]2C(=O)N[C@H]3C(=O)N[C@H](C(=O)N[C@H](C(=O)O)c4cc(O)c(CNCCCNC(=O)[C@H](O)[C@@H](O)[C@H](O)[C@H](O)CO)c(O)c4-c4cc3ccc4O)[C@H](O)c3ccc(c(Cl)c3)Oc3cc2cc(c3O[C@@H]2O[C@H](CO)[C@@H](O)[C@H](O)[C@H]2O[C@H]2C[C@](C)(NCc3ccc(-c4ccc(C(F)(F)F)cc4)cc3)[C@H](O)[C@H](C)O2)Oc2ccc(cc2Cl)[C@H]1O
Solution: 8
